Target: T1, BoNT/A Lc448, truncated botulinum neurotoxin serotype A light chain containing residues 1-448 (Clostridium botulinum, UniProt P0DPI0 1-448)
T1 construct: range 1-448
T1 sequence (P0DPI0 1-448 limits assumed): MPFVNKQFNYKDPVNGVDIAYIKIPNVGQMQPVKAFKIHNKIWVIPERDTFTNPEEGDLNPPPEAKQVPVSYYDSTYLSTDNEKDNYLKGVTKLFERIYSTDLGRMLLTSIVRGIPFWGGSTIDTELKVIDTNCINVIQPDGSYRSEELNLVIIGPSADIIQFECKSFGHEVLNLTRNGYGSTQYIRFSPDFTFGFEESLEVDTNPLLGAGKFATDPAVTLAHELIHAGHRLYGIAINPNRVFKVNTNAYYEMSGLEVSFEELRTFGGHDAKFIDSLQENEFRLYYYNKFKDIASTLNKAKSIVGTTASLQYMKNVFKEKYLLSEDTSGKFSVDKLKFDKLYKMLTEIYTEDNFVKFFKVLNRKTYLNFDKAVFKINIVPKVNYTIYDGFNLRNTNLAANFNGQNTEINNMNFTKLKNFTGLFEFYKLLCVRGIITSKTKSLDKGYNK
Test: flow cytometry, yeast-displayed VHH titrated with soluble BoNT/A Lc448
readout type: Kd (nM)
Answer with a number only, understood to be in nM.

Some binders with recorded Kd:
A23 VHH (VHH) VHH: AVQLVESGGGAVSPGGSLKLSCTASGLAFNGGAMGSEHRLTAGAMGWFRQAPGKDREFVAAIHPRTNDTYYSGTLEDRFTISIDDAKMTVYLQADSLRLEDTAVYSCAADEDVTPRGMGVIPYAEYWGQGTQVTVSS | 16.9
A21 VHH (VHH) VHH: QVQLVESGGGVVQAGGSLRLSCVASGFTIDDYPVAWFRQAPGKEREAVSCIGNRGGTTYYADSVKGRFSISRDDAKDTVYLQMNNLKSEDTAVYYCVKDLGSVGPGAEYDYWGQGTLVTVSS | 60.7
Aa1 VHH (VHH) VHH: AVQLVDSGGGTLQAGKSLRLSCAISGLAFDGGAMGSEHRLTAGAMGWFRQAPGKDREFVAAISPRTDETYYAESLEGRFSVSRDAAATMVFLEADNVRLDDTASYYCAADEDVTPRVMGVIPHADHWGQGTLVTVSS | 0.03
A26 VHH (VHH) VHH: DVQLVESGGGLVQPGGSLRLSCVVSGLTSTEYAIGWFRQAPGKEREGVACLVVSGHNSGRTHYSAAVKGRFTVSQDDATNTAILHMDNLQPKDTAVYYCAAEVSSGQPAVTTFWEDMYDYWGQGTQVTVSS | 8.7

Value lookup for Kd; key = Aa6 VHH (VHH) VHH: AVQLVESGGGLVASGGSLRLSCAASDFKFSDYWMHWIRQAPGKEREFVASIGWNGEITDYEESIEGRFAISRDNNKYTLYLEMRDLIPEDTGLYYCAASSDYRWSRQPFEFENWGQGTQVTVSS
0.52
